Population Mitochondria Different-Phenotype (%) reference
Tested on: HEK-293T
Assay: Multiplex assay against HEK293T
Type: toxicity, cell-based
Conditions: human, 12 h, 10 µM, compound concentration 10 uM, replicate 1
Give your result in % as a bare value.

Query: // lookup Population Mitochondria Different-Phenotype (%) for N[C@@]1(C(=O)O)CO[C@H]2[C@H](C(=O)O)[C@H]21
Result: 33

Query: // lookup Population Mitochondria Different-Phenotype (%) for Oc1c(CN2CCN(c3ccccn3)CC2)cc(Cl)c2cccnc12
Result: 64

Query: // lookup Population Mitochondria Different-Phenotype (%) for Cc1ccccc1C(=O)Nc1ccc(C(=O)N2CCCC(N(C)C)c3ccccc32)cc1.Cl (stereo not given)
Result: 74

Query: // lookup Population Mitochondria Different-Phenotype (%) for CCNC1(C(N)=O)CCN(c2ncnc3c2nc(-c2ccccc2Cl)n3-c2ccc(Cl)cc2)CC1
Result: 82

Query: // lookup Population Mitochondria Different-Phenotype (%) for CCCC(CCC)C(=O)O
Result: 40
